B1: library; numbered along this chain (parent)
chain: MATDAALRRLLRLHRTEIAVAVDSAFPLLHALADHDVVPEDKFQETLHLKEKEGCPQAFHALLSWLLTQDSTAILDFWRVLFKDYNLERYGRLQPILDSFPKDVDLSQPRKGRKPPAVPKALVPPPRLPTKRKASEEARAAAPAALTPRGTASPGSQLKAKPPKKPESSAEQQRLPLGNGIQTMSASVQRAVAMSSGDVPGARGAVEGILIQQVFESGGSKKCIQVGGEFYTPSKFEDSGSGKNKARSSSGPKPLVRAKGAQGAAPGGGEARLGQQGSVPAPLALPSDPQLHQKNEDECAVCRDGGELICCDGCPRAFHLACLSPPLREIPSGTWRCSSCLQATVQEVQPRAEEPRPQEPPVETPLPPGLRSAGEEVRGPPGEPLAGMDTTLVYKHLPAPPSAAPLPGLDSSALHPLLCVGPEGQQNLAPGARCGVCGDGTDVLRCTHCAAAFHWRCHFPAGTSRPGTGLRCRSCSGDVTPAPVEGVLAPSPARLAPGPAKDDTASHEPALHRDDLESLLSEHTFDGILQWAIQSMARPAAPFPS

- Variants of: B1
- method notes: AIRE transcriptional activation functional score (insulin promoter-GFP; nonsense median 0, synonymous median 1) (normalised score); higher = higher AIRE activity (more reporter activation)
- condition set: with insulin promoter-GFP reporter in HEK293
observed property: AIRE transcriptional activation functional score
Reply briefly: the number, and no unit.

Past entries and their recorded results:
1. G242R
0.611
2. R174D
0.334
3. E359L
1.01

Can you look up the measured AIRE transcriptional activation functional score of V484S for me?
0.906

# lookup: AIRE transcriptional activation functional score of L273Q
1.72

Would you kindly share the measured AIRE transcriptional activation functional score for D297W ?
0.671

AIRE transcriptional activation functional score lookup needed for P360W , thanks.
1.38

Item under review: A170L . Reported AIRE transcriptional activation functional score?
0.356

Entry under review: F59Q . Reported AIRE transcriptional activation functional score?
-1.19

# query: AIRE transcriptional activation functional score of entry A160I
0.857

I am curious: what AIRE transcriptional activation functional score value has been reported for P115S ?
1.58

What value of AIRE transcriptional activation functional score has been reported for the following variant? W78C
0.126
